Tested on: enterovirus D68
Test: Antiviral activity against Enterovirus D68 US/KY/14-18953 infected in human RD cells assessed as inhibition of virus-induced cytopathic effect incubated for 5 mins under shaking condition and measured after 3 days by neutral red dye-based photometric method
Format: functional, organism-based
Settings: Enterovirus D, US/KY/14-18953, RD
pEC50: −log10 of the molar value.
Label scheme, based on pEC50: class 1 (below 5), class 2 (5 to below 6), class 3 (6 or more)

{"columns": ["Compound", "Assayed Target", "Qualitative Label"],
 "data": [
  ["CCN(CC)CCNC(=O)c1cc(-c2c(C)noc2C)nc2ccccc12", "enterovirus D68", "class 1"],
  ["CCN(CC)CCNC(=O)c1cc(-c2ccc(-c3ccccc3)cc2)nc2ccccc12", "enterovirus D68", "class 1"],
  ["CC(C)Oc1cc(C(=O)NCCN(C)C)c2ccccc2n1", "enterovirus D68", "class 2"],
  ["CCN(CC)CCNC(=O)c1cc(-c2cnn(C)c2)nc2ccccc12", "enterovirus D68", "class 1"],
  ["CCCCOc1cc(C(=O)NCCN(CC)CC)c2ccccc2n1 [DIBUCAINE]", "enterovirus D68", "class 2"],
  ["CCN(CC)CCNC(=O)c1cc(OCC(F)(F)F)nc2ccccc12", "enterovirus D68", "class 2"],
  ["O=C(NC1CN2CCC1CC2)c1cc(-c2ccccc2)nc2ccccc12 (configuration not stated)", "enterovirus D68", "class 2"],
  ["CN(C)c1ccc(NC(=O)c2cc(-c3ccccc3)nc3ccccc23)cc1", "enterovirus D68", "class 1"],
  ["O=C(NCCN1CCCC1)c1cc(-c2ccccc2)nc2ccccc12", "enterovirus D68", "class 3"],
  ["CCC(CC)Oc1cc(C(=O)NCCN(CC)CC)c2ccccc2n1", "enterovirus D68", "class 1"],
  ["CCN(CC)CCNC(=O)c1cc(-c2cccs2)nc2ccccc12", "enterovirus D68", "class 3"],
  ["CCN(CC)CCNC(=O)c1cc(-c2cccc(OC)c2)nc2ccccc12", "enterovirus D68", "class 2"],
  ["CCCOc1cc(C(=O)NCCN(CC)CC)c2ccccc2n1", "enterovirus D68", "class 2"],
  ["CC(C)Oc1cc(C(=O)NCCN2CCOCC2)c2ccccc2n1", "enterovirus D68", "class 1"],
  ["CCN(CC)CCNC(=O)c1cc(OCC2CC2)nc2ccccc12", "enterovirus D68", "class 2"],
  ["CCN(CC)CCNC(=O)c1cc(-c2ccc3c(c2)CCO3)nc2ccccc12", "enterovirus D68", "class 2"],
  ["CCN(CC)CCNC(=O)c1cc(-c2ccc(CN3CCOCC3)cc2)nc2ccccc12", "enterovirus D68", "class 1"],
  ["CN(C)CCNC(=O)c1cc(-c2ccccc2)nc2ccc(F)cc12", "enterovirus D68", "class 3"],
  ["CC(C)Oc1cc(C(=O)N2CCN(C)CC2)c2ccccc2n1", "enterovirus D68", "class 1"],
  ["CCOc1cc(C(=O)NCCN(CC)CC)c2ccccc2n1", "enterovirus D68", "class 2"],
  ["CCN(CC)CCNC(=O)c1cc(OC)nc2ccccc12", "enterovirus D68", "class 1"],
  ["CC(C)Oc1cc(C(=O)NC2CCN(C)CC2)c2ccccc2n1", "enterovirus D68", "class 1"],
  ["NNC(=O)c1cc(-c2ccccc2)nc2ccccc12", "enterovirus D68", "class 1"],
  ["CCN(CC)CCNC(=O)c1cc(-c2ccc(OC)cc2)nc2ccccc12", "enterovirus D68", "class 2"],
  ["CN(C)CCNC(=O)c1cc(-c2cccs2)nc2ccccc12", "enterovirus D68", "class 3"],
  ["CCN(CC)CCNC(=O)c1cc(-c2cnc(OC)nc2)nc2ccccc12", "enterovirus D68", "class 1"]
]}
